pest or weed control at 1000 g/ha: recorded values
Test system: wild oat (Avena fatua) (AVEFA)
Assay: post-emergent herbicidal test, wild oat
Format: in vivo
Settings: Avena fatua, post-emergence; post-emergent, 1.0 kg/ha (*), 17-21 days after application; read-out: AVEFA percent control
Please respond with the number in % and leave the unit unwritten.

The examples below pair each entry with its known result.
>  <COMPOUND>
CC(O)CNCC(P(=O)(O)O)P(=O)(O)O (centres unmarked)

>  <pest or weed control at 1000 g/ha [%]>
90

$$$$
>  <COMPOUND>
CC1CC(C)CN(CC(P(=O)(O)O)P(=O)(O)O)C1 (centres unmarked)

>  <pest or weed control at 1000 g/ha [%]>
98

$$$$
>  <COMPOUND>
O=P(O)(O)C(Cn1ccnc1)P(=O)(O)O

>  <pest or weed control at 1000 g/ha [%]>
100

$$$$
>  <COMPOUND>
CC(NCC(P(=O)(O)O)P(=O)(O)O)c1ccc(F)cc1 (centres unmarked)

>  <pest or weed control at 1000 g/ha [%]>
90

$$$$

Request: Param item = CCCN(CCC(=O)O)CC(P(=O)(O)O)P(=O)(O)O ; retrieve measured pest or weed control at 1000 g/ha.
Result: 0

###

System: farnesyl pyrophosphate synthase in daffodil chromoplasts
Test: inhibition of farnesyl pyrophosphate synthase in daffodil chromoplasts (14C-isopentenyl pyrophosphate incorporation)
Type: biochemical, Narcissus pseudonarcissus
Details: Table I; unit inferred, IC50 values in nM; read-out: IC50
// classify(record): look up IC50 in ranges one = under 90 nM, two = from 90 nM up to 1000 nM, three = 1000 nM and over

>  <COMPOUND>
C=CCN(CC=C)CC(P(=O)(O)O)P(=O)(O)O

>  <TARGET_OF_ASSAY>
farnesyl pyrophosphate synthase in daffodil chromoplasts

>  <ANSWER_LABEL>
one

$$$$
>  <COMPOUND>
CC(NCC(P(=O)(O)O)P(=O)(O)O)c1ccccc1 (centres unmarked) [Compound 27]

>  <TARGET_OF_ASSAY>
farnesyl pyrophosphate synthase in daffodil chromoplasts

>  <ANSWER_LABEL>
three

$$$$
>  <COMPOUND>
CNCC(P(=O)(O)O)P(=O)(O)O

>  <TARGET_OF_ASSAY>
farnesyl pyrophosphate synthase in daffodil chromoplasts

>  <ANSWER_LABEL>
three

$$$$
>  <COMPOUND>
C=C(C)CNCC(P(=O)(O)O)P(=O)(O)O

>  <TARGET_OF_ASSAY>
farnesyl pyrophosphate synthase in daffodil chromoplasts

>  <ANSWER_LABEL>
one

$$$$
>  <COMPOUND>
O=P(O)(O)C(O)(C1CCCN1)P(=O)(O)O (centres unmarked)

>  <TARGET_OF_ASSAY>
farnesyl pyrophosphate synthase in daffodil chromoplasts

>  <ANSWER_LABEL>
two

$$$$

Request: Which category fits this record: O=P(O)(O)C(CN1CCCCCC1)P(=O)(O)O
Result: two

###

Test system: farnesyl pyrophosphate synthase in daffodil chromoplasts
Test: inhibition of farnesyl pyrophosphate synthase in daffodil chromoplasts (14C-isopentenyl pyrophosphate incorporation)
Type: biochemical, Narcissus pseudonarcissus
Settings: Table I; unit inferred, IC50 values in nM; read-out: IC50
Parameter IC50: see the listing below.
Answer with the number, then the unit.

Request: Looking for the measured IC50 of Cc1cn(CC(P(=O)(O)O)P(=O)(O)O)cn1 , can you help?
Result: 107 nM

Reference for the values: patent US5756423A
